Molecular target: MCH-1R (UniProt Q99705)
Experiment: MCH-1R competition binding assay
As shown below, each of these compounds has a reported Ki value.

Here are 3 compounds together with their reported answers.
In [3]: df
Out[3]:
                               entry_smiles  endpoint_value
0  C[C@H](O)CNCc1ccc2c(c1)CC[C@H](n1cnc3cc(-c4ccc(Cl)cc4)sc3c1=O)C2           25 nM
1  CS(=O)(=O)N1CCN(Cc2ccc3c(c2)CC[C@H](n2cnc4cc(-c5cncc(F)c5)sc4c2=O)C3)CC1         13.4 nM
2  CS(=O)(=O)N1CCN(Cc2ccc3c(c2)CC[C@H](n2cnc4cc(-c5ccc(Cl)c(Cl)c5)sc4c2=O)C3)CC1          142 nM

Consider now this further compound.
Data request: Notebook: pull reported Ki for MCH-1R (UniProt Q99705), entry CS(=O)(=O)N1CCN(Cc2ccc3c(c2)CC[C@H](n2cnc4cc(-c5ccc(F)cc5F)sc4c2=O)C3)CC1
Data returned: 7.6 nM
